Test system: central 5-HT receptors
EXPERIMENTAL_DETAILS: In-vivo determination of rat brain tryptophan hydroxylation (5-HTP formation) after reserpine pretreatment
CONDITION_PARAMETERS: s.c.; reserpine-pretreated rats; dose giving 70 % of the control 5-HTP level; similar values for limbic forebrain, striatum and hemispheral portions
OBSERVABLE: "ED70%" for 5-HTP reduction

Consider the worked cases shown below.
INSERT INTO assay_data (compound, target_desc, observed_result) VALUES
  ('CCCN(CCC)C1CCc2cccc(OC)c2C1 (single isomer, unassigned; (-)) [(-)-8]', 'central 5-HT receptors', '0.3 to 0.4 µmol/kg'),
  ('Oc1cccc2c1CC(N1CCCCC1)CC2 (stereo not shown) [Compound 24]', 'central 5-HT receptors', '<20 µmol/kg'),
  ('CNC1CCc2cccc(O)c2C1 (stereo not shown) [Compound 14]', 'central 5-HT receptors', '1.5 to 10 µmol/kg');

Query: Tell me measured "ED70%" for 5-HTP reduction for CCCN(CCC)C1CCc2cccc(OC)c2C1 (single isomer, unassigned; (+)) [(+)-8] please.
Reply: 0.2 to 0.4 µmol/kg
